Molecular target: human FAP (Homo sapiens)
Construct: the biotinylated His, Avi tag, human FAP (26-760, FAP-H82Q6); His; Avi tag (biotinylated); purchased AcroBiosystems FAP-H82Q6
Sequence (Q12884 26-760): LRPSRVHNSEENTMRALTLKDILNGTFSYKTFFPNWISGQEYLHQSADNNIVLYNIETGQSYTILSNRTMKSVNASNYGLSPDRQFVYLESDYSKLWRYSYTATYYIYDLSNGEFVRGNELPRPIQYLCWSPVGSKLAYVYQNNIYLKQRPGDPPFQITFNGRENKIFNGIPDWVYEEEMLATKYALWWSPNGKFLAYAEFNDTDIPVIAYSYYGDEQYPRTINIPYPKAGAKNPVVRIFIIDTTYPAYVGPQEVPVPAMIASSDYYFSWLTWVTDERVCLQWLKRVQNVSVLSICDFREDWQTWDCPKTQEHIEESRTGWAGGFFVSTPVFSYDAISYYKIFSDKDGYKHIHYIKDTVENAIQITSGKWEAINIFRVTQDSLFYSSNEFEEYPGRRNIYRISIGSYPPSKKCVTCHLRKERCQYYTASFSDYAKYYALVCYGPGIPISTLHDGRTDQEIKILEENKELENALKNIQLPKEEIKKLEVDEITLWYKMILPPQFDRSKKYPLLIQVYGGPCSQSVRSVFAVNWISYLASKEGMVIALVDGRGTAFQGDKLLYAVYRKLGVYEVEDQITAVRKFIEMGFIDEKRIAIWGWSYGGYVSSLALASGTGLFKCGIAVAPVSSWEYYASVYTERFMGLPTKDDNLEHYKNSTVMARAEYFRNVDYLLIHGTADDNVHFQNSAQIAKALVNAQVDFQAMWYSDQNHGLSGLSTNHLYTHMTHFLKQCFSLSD
Test: Surface plasmon resonance (SPR) for peptide affinity, human FAP
Format: binding
Conditions: read-out: h. FAP, SPR, KD
pKd: −log10 of the molar value. Starred links: 1 amine or outer side, 2 acyl side, 3 side chain; linkers in the order of their positions; H or OH if unused. Non-standard residues stand in square brackets, D forms with d. *: point of attachment. F(4amPEG2NHDOTA-Lu) = lutetium complex of (S)-2,2',2''-(10-(1-(4-(2-amino-2-carboxyethyl)phenyl)-3,12-dioxo-5,8-dioxa-2,11-diazatridecan-13-yl)-1,4,7,10-tetraazacyclododecane-1,4,7-triyl)triacetic acid (Phe with 4-aminomethyl-PEG2-DOTA-Lu), O=C([O-])CN1CCN(CC(=O)[O-])CCN(CC(=O)NCCOCCOCC(=O)NCc2ccc(C[C@H](N[*:1])C(=O)[*:2])cc2)CCN(CC(=O)[O-])CC1.[Lu+3]; F4(amMeGlyDOTALu) = lutetium complex of (S)-2,2',2''-(10-(2-((2-((4-(2-amino-2-carboxyethyl)benzyl)amino)-2-oxoethyl)(methyl)amino)-2-oxoethyl)-1,4,7,10-tetraazacyclododecane-1,4,7-triyl)triacetic acid (Phe with 4-aminomethyl-N-methyl-Gly-D, CN(CC(=O)NCc1ccc(C[C@H](N[*:1])C(=O)[*:2])cc1)C(=O)CN1CCN(CC(=O)[O-])CCN(CC(=O)[O-])CCN(CC(=O)[O-])CC1.[Lu+3]; F(4OEtNHDOTA-Lu) = lutetium complex of (S)-2,2',2''-(10-(2-((2-(4-(2-amino-2-carboxyethyl)phenoxy)ethyl)amino)-2-oxoethyl)-1,4,7,10-tetraazacyclododecane-1,4,7-triyl)triacetic acid (Phe with 4-O-ethylamino-DOTA-Lu), O=C([O-])CN1CCN(CC(=O)[O-])CCN(CC(=O)NCCOc2ccc(C[C@H](N[*:1])C(=O)[*:2])cc2)CCN(CC(=O)[O-])CC1.[Lu+3]; Q(Pyrro(2CN4F2)) = 2-amino-5-(2-cyano-4,4-difluoropyrrolidin-1-yl)-5-oxopentanoic acid; COpipzaa = 4-(carboxymethyl)piperazine-1-carbonyl, O=C(O)CN1CCN(C(=O)*)CC1; DOTA(Lu) = O=C1CN2CCN3CCN(CC(=O)*)CCN(CC2)CC(=O)[O][Lu]([O]1)[O]C(=O)C3; hS(Pr) = O-propyl-L-homoserine, CCCOCC[C@H](N[*:1])C(=O)[*:2]; NMeF = CN[C@@H](Cc1ccccc1)C(=O)O; Ahp(2) = CCCCC[C@H](N)C(=O)O

{"columns": ["Substance", "pKd"],
 "data": [
  ["Gly-Gly-NMePhe-F(4amPEG2NHDOTA-Lu)-Ahp-Trp-Gly-K(COpipzaa)-Asp-D-Pro (cyclo(GG[NMeF][F(4amPEG2NHDOTA-Lu)][Ahp(2)]WGK(COpipzaa)D[dP]); also: Lu complex) [Example C13]", "> 10.96"],
  ["Gly-Gly-NMePhe-F(4OEtNHDOTA-Lu)-Ahp-Trp-Gly-Tyr-Asp-D-Pro (cyclo(GG[NMeF][F(4OEtNHDOTA-Lu)][Ahp(2)]WGYD[dP]); also: Lu complex of DOTA) [Example C23]", "> 11.05"],
  ["Lys(DOTA-Lu)-Gly-NMePhe-Tyr-Ahp-Trp-Gly-Tyr-Asp-D-Pro (cyclo(K(DOTA(Lu))G[NMeF]Y[Ahp(2)]WGYD[dP]); also: Lu complex) [Example C22]", 9.39],
  ["Gly-Gly-NMePhe-F4(amMeGlyDOTALu)-Ahp-Trp-Gly-Tyr-Asp-D-Pro (cyclo(GG[NMeF][F4(amMeGlyDOTALu)][Ahp(2)]WGYD[dP]); also: Lu complex) [Example C8]", 11.40],
  ["Gly-Gly-NMePhe-F(4amPEG2NHDOTA-Lu)-Q(Pyrro(2CN4F2))-Trp-Gly-K(COpipzaa)-Asp-D-Pro (cyclo(GG[NMeF][F(4amPEG2NHDOTA-Lu)][Q(Pyrro(2CN4F2))]WGK(COpipzaa)D[dP]); also: Lu complex) [Example C19]", "> 10.74"],
  ["Gly-Gly-NMePhe-F(4amPEG2NHDOTA-Lu)-hS(Pr)-Trp-Gly-K(COpipzaa)-Asp-D-Pro (cyclo(GG[NMeF][F(4amPEG2NHDOTA-Lu)][hS(Pr)]WGK(COpipzaa)D[dP]); also: Lu complex) [Example C2]", "> 11.10"]
]}
